protocol_details: Cytotoxicity against C57BL/6 mouse spleen cells assessed as growth inhibition incubated for 24 hrs at 37 degC by propidium iodide stain based flow cytometry method
Format: cell-based
condition_description: C57BL/6, mouse, spleen cells; read-out: ED50
Entries annotated with measured CC50 at 24 h

[
  {
    "entry_smiles": "O=C(Cn1cc(CO)nn1)NCc1ccccc1",
    "reported_relation": "=",
    "CC50 at 24 h / µM": 490
  },
  {
    "entry_smiles": "NCc1cn(CC(=O)NCc2ccccc2)nn1",
    "reported_relation": ">",
    "CC50 at 24 h / µM": 2000
  },
  {
    "entry_smiles": "O=C(Cn1cc(-c2ccc([N+](=O)[O-])cc2)nn1)NCc1ccccc1",
    "reported_relation": "=",
    "CC50 at 24 h / µM": 800
  },
  {
    "entry_smiles": "CC(C)(O)c1cn(CC(=O)NCc2ccccc2)nn1",
    "reported_relation": "=",
    "CC50 at 24 h / µM": 1600
  },
  {
    "entry_smiles": "O=C(Cn1cc(-c2cccc([N+](=O)[O-])c2)nn1)NCc1ccccc1",
    "reported_relation": ">",
    "CC50 at 24 h / µM": 2000
  }
]

* * *

protocol_details: Cytotoxicity against C57BL/6 mouse spleen cells assessed as growth inhibition incubated for 24 hrs at 37 degC by propidium iodide stain based flow cytometry method
Type: cell-based
condition_description: C57BL/6, mouse, spleen cells; read-out: ED50
readout_name: CC50 at 24 h (µM)

[
  {
    "compound": "O=C(Cn1cc(CCCCO)nn1)NCc1ccccc1",
    "result_unit": "µM",
    "reported_relation": "=",
    "observed": 1700
  },
  {
    "compound": "COc1cccc(-c2cnnn2CC(=O)NCc2ccccc2)c1",
    "result_unit": "µM",
    "reported_relation": ">",
    "observed": 2000
  },
  {
    "compound": "COc1cccc(-c2cn(CC(=O)NCc3ccccc3)nn2)c1",
    "result_unit": "µM",
    "reported_relation": "=",
    "observed": 840
  },
  {
    "compound": "O=C(Cn1cc(C(=O)OCc2ccccc2)nn1)NCc1ccccc1",
    "result_unit": "µM",
    "reported_relation": "=",
    "observed": 720
  },
  {
    "compound": "CCC(O)Cc1cn(CC(=O)NCc2ccccc2)nn1 (configuration not stated)",
    "result_unit": "µM",
    "reported_relation": "=",
    "observed": 630
  },
  {
    "compound": "Nc1cccc(-c2cn(CC(=O)NCc3ccccc3)nn2)c1",
    "result_unit": "µM",
    "reported_relation": "=",
    "observed": 800
  },
  {
    "compound": "Cc1ccccc1-c1cn(CC(=O)NCc2ccccc2)nn1",
    "result_unit": "µM",
    "reported_relation": "=",
    "observed": 940
  },
  {
    "compound": "CC(C)(C)OC(=O)NCc1cn(CC(=O)NCc2ccccc2)nn1",
    "result_unit": "µM",
    "reported_relation": ">",
    "observed": 2000
  },
  {
    "compound": "O=C(Cn1nncc1CO)NCc1ccccc1",
    "result_unit": "µM",
    "reported_relation": ">",
    "observed": 2000
  },
  {
    "compound": "Nc1ccc(-c2cn(CC(=O)NCc3ccccc3)nn2)cc1",
    "result_unit": "µM",
    "reported_relation": "=",
    "observed": 1240
  },
  {
    "compound": "O=C(O)CCc1cn(CC(=O)NCc2ccccc2)nn1",
    "result_unit": "µM",
    "reported_relation": "=",
    "observed": 1420
  },
  {
    "compound": "O=C(O)CCCCc1cn(CC(=O)NCc2ccccc2)nn1",
    "result_unit": "µM",
    "reported_relation": "=",
    "observed": 1080
  }
]
